Taken from the supplement of paper PMC9112550.

- System: Escherichia coli TOP10
- assay: shrunken log2 fold change of peptide-encoding DNA abundance (4.5 h post-induction vs induction); higher = less antimicrobial activity (less host growth inhibition)
- experimental.context: time post-induction: 4.5 h; library: site-saturation at positions 5, 18, 19, 20
Decision: shrunken log2 fold change >= 0.04 yields Yes, all other cases yield No.

Use the examples below as a reference point.
RRIRARPPRLPRPRPRPYMEPRP = No
RRIRLRPPRLPRPRPRPDFEPRP = No
RRIRKRPPRLPRPRPRPNTRPRP = No
RRIRRRPPRLPRPRPRPPHRPRP = Yes
RRIRSRPPRLPRPRPRPIRTPRP = No

# check: shrunken log2 fold change of RRIRFRPPRLPRPRPRPNLMPRP is greater than or equal to 0.04 No

Repeat for the following sequence: RRIRMRPPRLPRPRPRPDHHPRP No

Now try RRIRFRPPRLPRPRPRPWTSPRP . No

// next record RRIRGRPPRLPRPRPRPHQAPRP Yes

Next: RRIRMRPPRLPRPRPRPSWAPRP Yes

What do we get for RRIRFRPPRLPRPRPRPNLYPRP ? No

----------
- Tested on: Escherichia coli TOP10
- assay: shrunken log2 fold change of peptide-encoding DNA abundance (4.5 h post-induction vs induction); higher = less antimicrobial activity (less host growth inhibition)
- experimental.context: time post-induction: 4.5 h; library: site-saturation at positions 5, 18, 19, 20
measured.attribute: shrunken log2 fold change

RRIRVRPPRLPRPRPRPSLDPRP = -0.0324

Give the measured shrunken log2 fold change of RRIRGRPPRLPRPRPRPSWVPRP . 0.0128

Check RRIRMRPPRLPRPRPRPNEMPRP too. 0.318

RRIRNRPPRLPRPRPRPQSFPRP , same question. -0.0341

----------
- Test system: Escherichia coli TOP10
- assay: shrunken log2 fold change of peptide-encoding DNA abundance (4.5 h post-induction vs induction); higher = less antimicrobial activity (less host growth inhibition)
- experimental.context: time post-induction: 4.5 h; library: site-saturation at positions 5, 18, 19, 20
Items are presented alongside their recorded shrunken log2 fold change.
Reply with the value as a number alone.

Observe how each entry below is paired with its result.
RRIRTRPPRLPRPRPRPFAIPRP = 0.061
RRIRTRPPRLPRPRPRPQLFPRP = -0.112

Query: shrunken log2 fold change; subject: RRIRTRPPRLPRPRPRPGGNPRP -0.264

Now try RRIRARPPRLPRPRPRPKIKPRP . 0.0665

Field entry: RRIRSRPPRLPRPRPRPFNHPRP -1.19

Now give it for RRIRTRPPRLPRPRPRPQANPRP too. -0.156

----------
- System: Escherichia coli TOP10;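 further: peptides expressed intracellularly from a pBAD plasmid library in pooled LB shake-flask culture, induced with 0.3% L-arabinose, DNA abundance read by NGS, three biological replicates, DESeq2 with apeglm shrinkage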
- assay: shrunken log2 fold change of peptide-encoding DNA abundance (4.5 h post-induction vs induction); higher = less antimicrobial activity (less host growth inhibition)
- experimental.context: time post-induction: 4.5 h; library: site-saturation at positions 5, 18, 19, 20
Items are presented alongside their recorded shrunken log2 fold change.

Requested field: shrunken log2 fold change. Item: RRIRFRPPRLPRPRPRPITQPRP -0.278

# repeat for RRIRDRPPRLPRPRPRPGKKPRP -0.00968

Input RRIRTRPPRLPRPRPRPYMRPRP -0.48

Let us now turn to RRIRERPPRLPRPRPRPQELPRP -0.755

Note, next up: RRIRWRPPRLPRPRPRPEHPPRP 0.16

Proceed to RRIRRRPPRLPRPRPRPPVWPRP 0.328

# iterate: RRIRWRPPRLPRPRPRPMFIPRP -0.378

Now give it for RRIRLRPPRLPRPRPRPPENPRP too. 0.588

Ok, now RRIRARPPRLPRPRPRPNAKPRP 0.262

Can you handle RRIRTRPPRLPRPRPRPHLWPRP next? 0.0316

// next record RRIRPRPPRLPRPRPRPATGPRP 0.0771

Next sequence up: RRIRYRPPRLPRPRPRPRIMPRP -1.06
